The origin of these recorded values is patent US11279733B2.

Test system: E. coli ATCC 25922
Test conditions: ATCC 25922
Description: Bacteria were either obtained from American Type Culture Collection (ATCC; Manassas, Va., USA) or independent academic clinical isolate collections, as listed in Table 18 below. Bacteria were cultured in Nutrient broth (NB; Bacto Laboratories, catalogue No. 234000) or Mueller Hinton broth (MHB; Bacto Laboratories, catalogue No. 211443) at 37° C. overnight with shaking (˜180 RPM). […]
Positions of bridges follow the written chain, without caps; N, C: chain ends. Non-standard residues stand in square brackets, D forms with d. Residues, ends and D or L forms follow the SMILES beside them. ξ: configuration not given here. *: point of attachment. Decanoyl(3R-OH) = CCCCCCC[C@@H](O)CC(=O)*; dBip = N[C@H](Cc1ccc(-c2ccccc2)cc1)C(=O)O; Decanoyl(3ξ-OH) = CCCCCCCC(O)CC(=O)*; dDab = NCC[C@@H](N)C(=O)O; Dab = NCC[C@H](N)C(=O)O
// values below are reported MIC E. coli ATCC 25922
All answers are understood in µg/mL, so give the number only.

Below are worked cases with known answers.
1. CCCCCCC[C@@H](O)CC(=O)N[C@H](CCN)C(=O)N[C@H]1CCNC(=O)[C@H](CC(C)C)NC(=O)[C@H](CCN)NC(=O)[C@H](CCN)NC(=O)[C@H](CC(C)C)NC(=O)[C@@H](C)NC(=O)[C@H](CCN)NC1=O [compound 5006] ({Decanoyl(3R-OH)}-[dDab][Dab][Dab][dA]L[Dab][Dab]L; lactam 2-C); 16
2. CCCCCCCC(O)CC(=O)N[C@H](CCN)C(=O)N[C@H]1CCNC(=O)[C@H](CC(C)C)NC(=O)[C@H](CCN)NC(=O)[C@H](CCN)NC(=O)[C@H](CC(C)C)NC(=O)[C@@H](Cc2ccccc2)NC(=O)[C@H](CCN)NC1=O (stereo partly drawn) [compound 5013] ({Decanoyl(3ξ-OH)}-[dDab][Dab][Dab][dF]L[Dab][Dab]L; lactam 2-C); 8

Now for the molecule whose MIC E. coli ATCC 25922 we want.
Identify MIC E. coli ATCC 25922 associated with the molecule CCCCCCC[C@@H](O)CC(=O)N[C@H](CCN)C(=O)N[C@H]1CCNC(=O)[C@H]([C@@H](C)O)NC(=O)[C@H](CCN)NC(=O)[C@H](CCN)NC(=O)[C@H](CC(C)C)NC(=O)[C@@H](Cc2ccc(-c3ccccc3)cc2)NC(=O)[C@H](CCN)NC1=O [compound 5608] ({Decanoyl(3R-OH)}-[dDab][Dab][Dab][dBip]L[Dab][Dab]T; lactam 2-C) 2
